Experiment: viability loss with induced miR-34 in A549 – imaging, A549 dox-inducible miR-34, nuclei and caspase counts, primary screen (AID 1347080); note: test concentration not given here
Settings: A549 miR-34 inducible, Hoechst nuclei count, 48 h; measured here: relative caspase fold change +Dox/-Dox
So I've got a bunch of compounds here, and I need their fold change values.
Lab note: jot down the number only; don't add units.

Lab book: fold change of C=C(C)C1CC[C@]2(C(=O)O)CC[C@]3(C)[C@H](CC[C@@H]4[C@@]5(C)CCC(O)C(C)(C)[C@@H]5CC[C@]43C)[C@@H]12 (some centres undefined) noted as 0.918

Lookup result for `CN(C)c1ccc(N=Nc2ccccc2C(=O)O)cc1` ; measured fold change: 0.761

fold change reading for `CCCCCCCCCCCCCCCC(=O)NCCc1ccc(O)c(O)c1` : 0.624

# fold change of `CS(=O)(=O)c1ccc(C(=N)N)cc1` = 0.391
